system: human recombinant adrenergic α2A receptor (Homo sapiens, UniProt P08913)
Construct: expressed in transfected cells; host or cells: insect Sf9 cells
Sequence (P08913 whole entry): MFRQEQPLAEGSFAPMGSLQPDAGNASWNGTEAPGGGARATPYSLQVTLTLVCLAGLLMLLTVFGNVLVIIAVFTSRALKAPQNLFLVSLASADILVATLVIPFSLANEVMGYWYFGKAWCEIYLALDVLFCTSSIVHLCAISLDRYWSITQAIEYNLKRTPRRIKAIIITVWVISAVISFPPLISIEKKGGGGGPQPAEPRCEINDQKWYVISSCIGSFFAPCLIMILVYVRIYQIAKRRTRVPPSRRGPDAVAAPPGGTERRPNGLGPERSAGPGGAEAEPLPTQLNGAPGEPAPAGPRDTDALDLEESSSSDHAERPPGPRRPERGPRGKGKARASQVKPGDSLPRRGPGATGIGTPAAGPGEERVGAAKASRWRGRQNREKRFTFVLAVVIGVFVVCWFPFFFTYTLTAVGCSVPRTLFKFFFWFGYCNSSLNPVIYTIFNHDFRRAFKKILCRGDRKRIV
assay overview: Adrenergic alpha2A radioligand binding ([3H]MK-912)
condition summary: compound at 1 μM; read-out: Adrenergic (1 μM) α2A, percent inhibition of specific binding
Exercise: for every item that follows, state its recorded inhibition at 1 µM.
Give bare numbers, in %.

Consider the reported inhibition at 1 µM for these compounds:
# compound, inhibition at 1 µM (%)
measured = [
    ("CN1CCc2c(n(CC(O)c3ccccc3F)c3ccc(Cl)cc23)CC1 (stereo not drawn)", 96),
    ("C/C(=C\\n1c2c(c3cc(C)ccc31)CCN(C)CC2)c1ccc(Cl)cc1Cl", 98),
    ("Cc1cncc(CCn2c3c(c4cc(Cl)ccc42)CCN(C)CC3)c1", 91),
    ("CN1CCc2c(n(CC(O)c3ccncc3)c3ccc(Cl)cc23)CC1 (stereo not drawn)", 87),
    ("Cc1ccc2c(c1)c1c(n2CC(=O)NC2CCCCC2)CCN(C)CC1", -14),
    ("Cc1ccc2c(c1)c1c(n2CCc2ccc(C(F)(F)F)nc2)CCN(C)CC1", 68),
    ("Cc1ccc2c(c1)c1c(n2CC(O)c2ccccc2)CCN(C)CC1 (stereo not drawn)", 100),
    ("CN1CCc2c(n(CC(=O)N3CCCCC3)c3ccc(Cl)cc23)CC1", -1),
    ("CN1CCc2c(n(CCc3ccccc3Cl)c3ccc(Cl)cc23)CC1", 101),
    ("Cc1ccc(CCn2c3c(c4cc(Cl)ccc42)CCN(C)CC3)cc1", 100),
]

For every listed record, write down its inhibition at 1 µM.
1. C/C(=C\n1c2c(c3cc(Cl)ccc31)CCN(C)CC2)c1ccc(Cl)cc1
2. Cc1ccc2c(c1)c1c(n2/C=C/c2ccc(Cl)cc2)CCN(C)CC1
3. CN1CCc2c(n(/C=C/c3ccc(F)cc3)c3ccc(Cl)cc23)CC1
4. COc1ccc(C(O)Cn2c3c(c4cc(Cl)ccc42)CCN(C)CC3)c(F)c1 (stereo not drawn)
5. CN1CCc2c(n(CCc3ccncc3)c3ccc(Cl)cc23)CC1
6. C/C(=C\n1c2c(c3cc(Cl)ccc31)CCN(C)CC2)c1ccc(F)cc1
7. CN1CCc2c(n(CC(C)(O)c3ccc(Cl)cc3)c3ccc(Cl)cc23)CC1 (stereo not drawn)

Output:
[96, 95, 98, 96, 97, 96, 101]

Form field inhibition at 1 µM, entry Cc1ccc2c(c1)c1c(n2CC(O)c2ccccc2F)CCN(C)CC1 (stereo not drawn) : 95
